Each entry below carries its recorded Plant response rating, Crabgrass, Large.
System: large crabgrass
Experiment description: Test E pre-/postemergence herbicide test
Type: in vivo, Digitaria sanguinalis
Test conditions: Preemergence, 62 g ai/ha; scale 0 to 100

Known Plant response rating, Crabgrass, Large results, listed for orientation:
>>> recorded_result("CCc1nn(C(C)(C)C)cc1C(=O)Nc1cc(C(=O)N(C)C)ccc1F")
70
>>> recorded_result("CCNC(=O)c1cccc(NC(=O)c2cc(C(C)(C)C)nn2CC)n1")
0
>>> recorded_result("CCNC(=O)c1ccc(F)c(NC(=O)c2cn(C(C)(C)C)nc2CC)c1")
60

Continue with the next compound.
Item `CCc1nn(C(C)C)nc1C(=O)Nc1cccc(C(=O)N2CCCCC2)c1` : provide Plant response rating, Crabgrass, Large 80

----------
Test system: rice
Experiment description: Test C flooded paddy test
Assay type: in vivo, Oryza sativa
Test conditions: 125 g ai/ha, scale of 0 to 100, 0 is no effect, 100 is complete control
Decision: Rice plant response rating compared against 20; not below it gives rule met, below it gives rule not met.

Example entries and their recorded answers appear below.
>>> assigned_class("CCn1nc(C(C)(C)C)cc1C(=O)Nc1cccc(C(=O)NCCF)c1 [Compound 45]")
"rule met"
>>> assigned_class("CCn1nc(C(C)(C)C)cc1C(=O)Nc1cccc(C(=O)NCC2CC2)c1 [Compound 62]")
"rule met"
>>> assigned_class("C=CCn1nc(C(C)(C)C)cc1C(=O)Nc1cccc(C(=O)NCC)c1 [Compound 56]")
"rule not met"

# check: Rice plant response rating of CCNC(=O)c1cccc(NC(=O)c2cc(C(C)(C)C)nn2CC(F)(F)F)c1 [Compound 31] is greater than or equal to 20 rule not met

# check: Rice plant response rating of C=Cn1nc(C(C)(C)C)cc1C(=O)Nc1cccc(C(=O)N(CC)CC)c1 [Compound 34] is greater than or equal to 20 rule not met

# check: Rice plant response rating of CCn1nc(C(C)(C)C)cc1C(=O)Nc1cccc(C(=O)N(C)C)c1 [Compound 49] is greater than or equal to 20 rule met

# check: Rice plant response rating of CON=C(C)c1cccc(NC(=O)c2cc(C(C)(C)C)nn2C)c1 [Compound 106] is greater than or equal to 20 rule not met

----------
Each entry below carries its recorded Barnyardgrass plant response rating.
Test system: barnyardgrass
Experiment description: Test B pre-/postemergence herbicide test
Type: in vivo, Echinochloa crus-galli
Test conditions: postemergence, 500 g ai/ha; visual rating, scale 0 (no effect) to 100 (complete control)

Known Barnyardgrass plant response rating results, listed for orientation:
>>> recorded_result("Cc1nn(C(C)(C)C)cc1C(=O)Nc1cccc(OC(C)C)c1")
10
>>> recorded_result("CCNC(=O)c1cc(NC(=O)c2cc(C(C)(C)C)nn2CC)ccn1")
0
>>> recorded_result("CCN(CC)C(=O)c1ccnc(NC(=O)c2cc(C(C)(C)C)nn2CC)c1")
30
>>> recorded_result("CCc1nc(C(C)(C)C)sc1C(=O)Nc1cccc(C(=O)NCCF)c1")
20
>>> recorded_result("CCc1nn(C(C)(C)C)cc1C(=O)Nc1cccc(C(C)=O)c1")
10

Answer with Barnyardgrass plant response rating of `CCc1nn(C(C)(C)C)cc1C(=O)Nc1cc(C(=O)N(C)CC)ccc1F` measured for barnyardgrass. 30

Answer with Barnyardgrass plant response rating of `CCNC(=O)c1ccc(F)c(NC(=O)c2sc(C(C)(C)C)nc2CC)c1` measured for barnyardgrass. 20

Answer with Barnyardgrass plant response rating of `CC(=O)c1cccc(NC(=O)c2cc(C(C)(C)C)nn2CC(F)(F)F)c1` measured for barnyardgrass. 30

----------
Test system: corn
Experiment description: Test B pre-/postemergence herbicide test
Format: in vivo, Zea mays
Test conditions: 125 g ai/ha; 0 = no effect, 100 = complete control; preemergence
Reported metric: Corn plant response rating (0 to 100 scale)
// return a plain number; no unit text

>>> recorded_result("CCNC(=O)c1ccc(F)c(NC(=O)c2cc(C3(C)CC3)nn2CC)c1")
0
>>> recorded_result("CCOC(=O)c1ccnc(NC(=O)c2cn(C(C)(C)C)nc2CC)c1")
0
>>> recorded_result("CCNC(=O)c1ccc(F)c(NC(=O)c2cn(C(C)(C)C)nc2CC)c1")
70

Item `CCc1nc(C(C)(C)C)sc1C(=O)Nc1cccc(C(=O)NCCF)c1` : provide Corn plant response rating (0 to 100 scale) 0

Item `C#CCNC(=O)c1cncc(NC(=O)c2cc(C(C)(C)C)nn2CC)n1` : provide Corn plant response rating (0 to 100 scale) 0

Item CCN(CC)C(=O)c1ccc(F)c(NC(=O)C2CC(C(C)(C)C)=NN2CC)c1 (racemic) : provide Corn plant response rating (0 to 100 scale) 20

----------
Each entry below carries its recorded Morningglory plant response rating (0 to 100 scale).
System: morningglory
Experiment description: Test B pre-/postemergence herbicide test
Type: in vivo, Ipomoea coccinea
Test conditions: 125 g ai/ha; 0 = no effect, 100 = complete control; preemergence
Description: […] At the same time, plants selected from these crop and weed species and also blackgrass (Alopecurus myosuroides Huds.), wheat (Triticum aestivum L.) and wild oat (Avena fatua L.) were treated with postemergence applications of test chemicals formulated in the same manner. […] Treated plants and controls were maintained in a greenhouse for 13 to 15 days, after which time all species were compared to controls and visually evaluated. […]
// return a plain number; no unit text

>>> recorded_result("C#CCNC(=O)c1ccc(F)c(NC(=O)c2cc(C(C)(C)C)nn2CC)n1")
0
>>> recorded_result("CCc1nc(C(C)(C)C)sc1C(=O)Nc1cccc(C(=O)NCC2CC2)c1")
0

Continue with the next molecule.
Answer with Morningglory plant response rating (0 to 100 scale) of `CCn1nc(C(C)(C)C)cc1C(=O)Nc1ccnc(C(=O)N2CC=CC2)c1` measured for morningglory. 0

----------
Each entry below carries its recorded Sedge, Umbrella plant response rating.
Tested on: smallflower umbrella sedge
Experiment description: Test C flooded paddy test
Type: in vivo, Cyperus difformis
Test conditions: 250 g ai/ha, scale of 0 to 100, 0 is no effect, 100 is complete control
// return a plain number; no unit text

Known Sedge, Umbrella plant response rating results, listed for orientation:
>>> recorded_result("CCn1nc(C(C)(C)C)cc1C(=O)Nc1cccc(C(C)=O)c1 [Compound 122]")
70
>>> recorded_result("CCNC(=O)c1ccc(F)c(NC(=O)c2cn(C(C)(C)C)nc2CC)c1 [Compound 193]")
80
>>> recorded_result("CCNC(=O)c1ccc(F)c(NC(=O)c2sc(C(C)(C)C)nc2CC)c1 [Compound 226]")
40
>>> recorded_result("CCOc1cccc(NC(=O)c2cc(C(C)(C)C)nn2CC)c1 [Compound 136]")
85
>>> recorded_result("CCOC(=O)c1cc(NC(=O)c2cc(C(C)(C)C)nn2CC)ccc1OCC [Compound 95]")
95

Item CCc1nc(C(C)(C)C)sc1C(=O)Nc1cccc(C(=O)NCCF)c1 [Compound 209] : provide Sedge, Umbrella plant response rating 65

Item CCn1nc(C(C)(C)C)cc1C(=O)Nc1ccc(OC)c(OC)c1 [Compound 298] : provide Sedge, Umbrella plant response rating 70

----------
Tested on: large crabgrass
Experiment description: Test B pre-/postemergence herbicide test
Format: in vivo, Digitaria sanguinalis
Test conditions: 125 g ai/ha; 0 = no effect, 100 = complete control; preemergence
Each entry below carries its recorded Crabgrass, Large plant response rating (0 to 100 scale).

>>> recorded_result("CCNC(=O)c1cncc(NC(=O)c2cc(C(C)(C)C)nn2CC)c1")
0
>>> recorded_result("CCc1nc(C(C)(C)C)sc1C(=O)Nc1cc(C(=O)N(C)C)ccc1F")
10

Item `CCOC(=O)c1cccc(NC(=O)c2cc(C3(C)CC3)nn2CC)c1` : provide Crabgrass, Large plant response rating (0 to 100 scale) 10

Item `CCn1nc(C(C)(C)C)cc1C(=O)Nc1cncc(C(=O)N2CC=CC2)c1` : provide Crabgrass, Large plant response rating (0 to 100 scale) 0

----------
System: barnyardgrass
Experiment description: Test B flooded paddy test
Type: in vivo, Echinochloa crus-galli
Test conditions: 1000 g ai/ha, scale 0 to 100 (0 no effect, 100 complete control)
Reported metric: Barnyardgrass plant response rating
// return a plain number; no unit text

>>> recorded_result("CCN1N=C(C(C)(C)C)CC1C(=O)Nc1cc(C(=O)N2CC=CC2)ccc1F (racemic)")
90
>>> recorded_result("C=CCN(CC=C)C(=O)c1cncc(NC(=O)c2cc(C(C)(C)C)nn2CC)c1")
0
>>> recorded_result("CCNC(=O)c1cccc(NC(=O)c2nn(C(C)C)nc2CC)c1")
70

Answer with Barnyardgrass plant response rating of `CCc1nn(C(C)(C)C)cc1C(=O)Nc1cccc(C(=O)N(C)C)n1` measured for barnyardgrass. 20

----------
System: velvetleaf
Experiment description: Test B pre-/postemergence herbicide test
Assay type: in vivo, Abutilon theophrasti
Test conditions: Postemergence, 500 g ai/ha; scale 0 (no effect) to 100 (complete control)
Each entry below carries its recorded Velvetleaf plant response rating.
// return a plain number; no unit text

Known Velvetleaf plant response rating results, listed for orientation:
>>> recorded_result("CCOC(=O)c1cccc(NC(=O)c2nn(C(C)C)nc2C)c1")
50
>>> recorded_result("CCNC(=O)c1cccc(NC(=O)c2nn(C(C)(C)C)nc2C)n1")
20

Continue with the next molecule.
Answer with Velvetleaf plant response rating of `CCc1nn(C(C)(C)CC)nc1C(=O)Nc1cccc(OC(F)(F)F)c1` measured for velvetleaf. 20
